Molecular target: tyrosinase (Homo sapiens)
Construct: the cells were trypsinised and lysated in PBS pH 7.0 with 1% Triton X-100; host or cells: human melanocytes (primary), stimulated with 2 mM L-tyrosine; Triton X-100 lysate
Sequence (P14679 19-529): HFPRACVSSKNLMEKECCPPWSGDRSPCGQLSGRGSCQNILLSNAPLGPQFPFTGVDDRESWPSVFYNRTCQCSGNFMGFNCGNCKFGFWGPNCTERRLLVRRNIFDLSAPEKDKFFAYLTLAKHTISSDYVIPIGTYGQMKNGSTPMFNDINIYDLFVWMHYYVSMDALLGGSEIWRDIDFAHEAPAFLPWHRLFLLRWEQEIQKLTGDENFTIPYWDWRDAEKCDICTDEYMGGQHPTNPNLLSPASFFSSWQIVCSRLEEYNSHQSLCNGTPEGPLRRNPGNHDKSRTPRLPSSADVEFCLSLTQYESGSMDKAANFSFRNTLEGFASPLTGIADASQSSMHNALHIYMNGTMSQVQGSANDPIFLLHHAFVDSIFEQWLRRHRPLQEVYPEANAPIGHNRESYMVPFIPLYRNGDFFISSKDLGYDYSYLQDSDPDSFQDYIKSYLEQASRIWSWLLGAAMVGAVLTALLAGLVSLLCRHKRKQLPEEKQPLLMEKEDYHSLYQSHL
Assay: tyrosinase activity in lysate of L-tyrosine-stimulated human melanocytes (L-DOPA/MBTH)
Format: biochemical
Conditions: 1 mM; L-tyrosine-stimulated control = 100%
parameter: Percentage of tyrosinase activity (%)
Please respond with the number in % and leave the unit unwritten.

Before answering, review these 4 worked examples.
> print(dat)
                                   compound  value.unit  measured.number
1  O=C(/C=C/c1ccc(O)cc1)c1ccc(O)cc1 [Reference molecule, reference compound]           %               84
2  O=C(CCc1ccc(O)c(S(=O)(=O)[O-])c1)c1ccc(O)c(S(=O)(=O)[O-])c1.[K+].[K+] [VI M = K]           %               91
3  CCN(CC)CC.O=C(/C=C/c1ccc(O)cc1)c1ccc(O)c(S(=O)(=O)O)c1 [V M = (C2H5)3N]           %               83
4  O=C(/C=C/c1ccc(O)cc1)c1ccc(O)c(S(=O)(=O)[O-])c1.[Na+] [V M = Na]           %               82

Consider now this further compound.
Prompt: Field: Percentage of tyrosinase activity (tyrosinase (Homo sapiens)). Entry: O=C(/C=C/c1ccc(O)c(S(=O)(=O)[O-])c1)c1ccc(O)c(S(=O)(=O)[O-])c1.[K+].[K+] [IV M = K]
Completion: 97
